Reference source: PubChem BioAssay (NCATS)

assayed-target: Glutathione peroxidase 1 (Homo sapiens) (UniProt P07203)
Sequence (P07203 whole entry, looked up): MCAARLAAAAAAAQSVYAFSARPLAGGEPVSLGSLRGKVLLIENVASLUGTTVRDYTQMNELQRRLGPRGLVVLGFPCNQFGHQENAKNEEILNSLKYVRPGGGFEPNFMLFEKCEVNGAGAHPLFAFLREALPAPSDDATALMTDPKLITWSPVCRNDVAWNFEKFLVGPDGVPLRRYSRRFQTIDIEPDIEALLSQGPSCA
assay-comment: Primary qHTS Assay for Inhibitors of Recombinant Selenoprotein Glutathione Peroxidase 1 (GPX1) (AID 1845191); also: nearly all actives have a fitted effect of over 65% in size
setup-conditions: recombinant GPX1, GR-coupled NADPH fluorescence, 15 min; series mostly up to 48.8 µM
Results filed as inconclusive are left out. Calls of active or inactive are those of the source. Calls follow the shape of the dose curve; as a rule, active = well fitted inhibition curve with a large enough effect; inconclusive = small, poorly fitted or top-dose-only effect; inactive = flat fitted curve, though single readings scatter.
Lab note: assign the record to one of 1 (active), 0 (inactive)

query: Fill in: this test's call for COc1cc(C(O)CN)ccc1O (stereo not drawn) is ___
result: 0

query: Which outcome was assigned to CC(C)NC(C)Cc1ccc(I)cc1 (stereo not drawn) in this test?
result: 0

query: In this assay, the call recorded for NCc1cc(=O)[nH]o1 was what?
result: 0

query: What outcome does the record of this test show for Cc1ccccc1-n1c(Cn2ncc3c(N)ncnc32)nc2cccc(C)c2c1=O ?
result: 0

query: Each compound tested received a call. Report the one for CN[C@@H]1Cc2cccc3[nH]c(=O)n(c23)C1 .
result: 0

query: What is the recorded call for this compound in the test? Cc1nccc2c1[nH]c1ccccc12
result: 0

query: For CCNC(=O)C[C@@H]1N=C(c2ccc(Cl)cc2)c2cc(OC)ccc2-n2c(C)nnc21 , what call appears in the results of this test?
result: 0

query: Recorded call for N=c1c2c(-c3ccccc3)c(-c3ccccc3)n(Cc3ccccc3)c2ncn1C1CCC(O)CC1 (stereo not drawn) ?
result: 0

query: Could you kindly confirm the outcome this assay logged for CCc1c(C(=O)C(N)=O)c2c(OCC(=O)O)cccc2n1Cc1ccccc1 ?
result: 0

query: What call does the record list for C#CCOC(=O)C1=CCCN(C)C1 ?
result: 0

query: Outcome logged for S=C(SSC(=S)N1CCCCC1)N1CCCCC1 in this assay:
result: 1

query: Please state the recorded outcome for this compound: CS(=N)(=O)CC[C@H](N)C(=O)O (stereo partly drawn)
result: 0

query: Called result for CCNC(=O)CC1N=C(c2ccc(Cl)cc2)c2cc(OC)ccc2-n2c(C)nnc21 (stereo not drawn)
result: 0

query: Dear colleague, could you share the recorded outcome for CCCN1CCO[C@@H]2c3cc(O)ccc3OC[C@H]21 when you have a moment?
result: 0

query: Given NCCc1c[nH]c2ccccc12 , state the outcome it received in this test.
result: 0

query: Assay outcome for COc1ccc(C(=O)c2c(C)n(CCN3CCOCC3)c3cc(I)ccc23)cc1 : what was it?
result: 0

query: Record lookup: outcome of this test for O=C1C=CC[C@@H]2[C@H]3CCCN4CCC[C@@H](CN12)[C@@H]34 ?
result: 0

query: Which outcome did this test record for the compound O=[N+]([O-])/N=C1\NCCN1Cc1ccc(Cl)nc1 ?
result: 0

query: Look up the recorded call for COCC1(CO)C(=O)C2CCN1CC2 (stereo not drawn) in this test.
result: 0

query: Name the outcome recorded for O=C(NCC1CCOCC1)c1cnc(Nc2ccc(Cl)cc2Cl)nc1C(F)(F)F in the assay.
result: 0

query: Dear colleague, could you share the recorded outcome for O=c1[nH]c2ccccc2n1C1CCN(Cc2ccc(-c3[nH]c4cc5ncnc5cc4nc3-c3ccccc3)cc2)CC1 when you have a moment?
result: 0

query: Kindly provide the recorded test outcome for the following compound: Oc1ccc2c3c1O[C@H]1c4[nH]c5c(c4C[C@@]4(O)[C@@H](C2)N(CC2CC2)CC[C@]314)C[C@@]1(O)[C@H]2Cc3ccc(O)c4c3[C@@]1(CCN2CC1CC1)[C@H]5O4
result: 0

query: Any idea what this test logged for C[N+]1(C)C2CCC1CC(OC(=O)C(CO)c1ccccc1)C2 (stereo not drawn) ?
result: 0
